- test.system: Serine/threonine-protein kinase pim-1 (Homo sapiens, UniProt P11309)
- Sequence (P11309 whole entry): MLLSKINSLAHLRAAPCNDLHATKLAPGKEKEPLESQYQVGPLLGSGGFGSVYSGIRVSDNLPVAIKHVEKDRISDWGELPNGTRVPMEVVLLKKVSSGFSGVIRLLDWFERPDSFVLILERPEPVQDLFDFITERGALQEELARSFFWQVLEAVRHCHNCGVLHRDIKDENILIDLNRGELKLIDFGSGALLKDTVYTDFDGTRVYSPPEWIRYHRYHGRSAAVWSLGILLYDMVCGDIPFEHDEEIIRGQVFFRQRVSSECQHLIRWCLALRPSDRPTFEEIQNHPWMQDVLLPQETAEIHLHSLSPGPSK
experimental.endpoint: IC50 (nM)
Value expressed in nM; do not type the unit.

Study these solved cases before continuing.
>  <entry.smiles>
C[C@@H]1CCCN(c2c(/C=C3\SC(=O)NC3=O)cccc2-c2ccccc2)C1

>  <scale.unit>
nM

>  <IC50>
3

$$$$
>  <entry.smiles>
NCCN1CCN(CCN2c3ccncc3Oc3ccc(Br)cc32)CC1

>  <scale.unit>
nM

>  <IC50>
0.9

$$$$
>  <entry.smiles>
CC(C)(O)[C@H]1CC[C@H](Nc2ccc3ncc(-c4cccc(C(F)(F)F)c4)n3n2)CC1

>  <scale.unit>
nM

>  <IC50>
5

$$$$

Lab note: next compound to report on.
*Q* // IC50 lookup, key: CC(C)n1c(C2CCNCC2)nc2c([N+](=O)[O-])c(Br)c(Br)cc21
*A* 2

Source listed as ChEMBL document CHEMBL5532678.
